Molecular target: 5HT UPTAKE (Rattus norvegicus, UniProt P31652)
Construct: Crude synaptosomal preparations were isolated after differential centrifugation; from tissue; host or cells: rat cerebral cortex, crude synaptosomes
Sequence (P31652 whole entry): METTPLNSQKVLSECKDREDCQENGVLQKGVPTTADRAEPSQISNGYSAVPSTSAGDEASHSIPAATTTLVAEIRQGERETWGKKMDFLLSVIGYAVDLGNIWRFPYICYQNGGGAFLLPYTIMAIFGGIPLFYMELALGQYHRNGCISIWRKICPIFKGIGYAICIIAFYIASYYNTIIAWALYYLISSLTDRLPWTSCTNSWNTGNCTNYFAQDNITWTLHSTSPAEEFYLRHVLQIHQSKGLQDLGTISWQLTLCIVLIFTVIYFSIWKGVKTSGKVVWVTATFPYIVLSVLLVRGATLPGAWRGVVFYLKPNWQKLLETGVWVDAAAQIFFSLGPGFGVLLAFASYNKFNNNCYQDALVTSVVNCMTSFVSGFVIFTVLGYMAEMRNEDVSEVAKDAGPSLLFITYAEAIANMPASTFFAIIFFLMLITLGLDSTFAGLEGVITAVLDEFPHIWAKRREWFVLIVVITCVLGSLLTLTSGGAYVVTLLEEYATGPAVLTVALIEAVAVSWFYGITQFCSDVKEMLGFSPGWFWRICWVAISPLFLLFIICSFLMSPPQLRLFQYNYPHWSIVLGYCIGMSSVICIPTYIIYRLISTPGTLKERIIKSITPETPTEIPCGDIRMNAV
Assay: Inhibition of synaptosomal uptake of 3H-serotonin (3H-5HT) in vitro, rat cerebral cortex synaptosomes
Type: biochemical, Sprague-Dawley rats
Conditions: concentration needed to inhibit the uptake of 3H-5HT by 50%; rat cortical synaptosomes, 37°C, 5 min, 50 nM 3H-5HT
Counter-ions that a name gives are not always drawn.
MEASUREMENT KIND: IC50

[[record]]
compound = "COc1ccc(Br)c2c1CC(N1CCNCC1)CC2 (centres unmarked) [Example 16, dihydrochloride]"
measurement_kind = "IC50"
result = "3.7 nM"

[[record]]
compound = "CC1c2c(Cl)cccc2CCC1N1CCN(C)CC1 (centres unmarked) [Example 11, dimaleate]"
measurement_kind = "IC50"
result = "650 nM"

[[record]]
compound = "C[C@@H]1c2ccc(Cl)cc2CC[C@@H]1N1CCNCC1 (single isomer, unassigned; (+)) [Example 33a, dihydrochloride dihydrate]"
measurement_kind = "IC50"
result = "84 nM"

[[record]]
compound = "CN1CCN(C2CCc3cc(Br)ccc3C2)CC1 (centres unmarked) [Example 31, dihydrochloride]"
measurement_kind = "IC50"
result = "520 nM"

[[record]]
compound = "CC1c2ccc(Br)cc2CCC1N1CCNCC1 (centres unmarked) [Example 40, dihydrochloride]"
measurement_kind = "IC50"
result = "34 nM"


## Input I would be grateful if you could share the reported IC50 for COc1ccc(C(F)F)c2c1CC(N1CCN(C)CC1)CC2 (centres unmarked) [Example 38, dimaleate] .
## Output 23 nM

## Input I would be grateful if you could share the reported IC50 for CN1CCN(C2CCc3cccc(Cl)c3C2)CC1 (centres unmarked) [Example 4, dimaleate] .
## Output 35 nM

## Input I would be grateful if you could share the reported IC50 for COc1ccc(C#N)c2c1CC(N1CCN(C)CC1)CC2 (centres unmarked) [Example 24, dihydrochloride] .
## Output 12 nM

* * *

Target: 5HT UPTAKE (Rattus norvegicus)
Construct: Crude synaptosomal preparations were isolated after differential centrifugation; from tissue; host or cells: rat cerebral cortex, crude synaptosomes
Assay: Inhibition of synaptosomal uptake of 3H-serotonin (3H-5HT) in vitro, rat cerebral cortex synaptosomes
Type: biochemical, Sprague-Dawley rats
Conditions: concentration needed to inhibit the uptake of 3H-5HT by 50%; rat cortical synaptosomes, 37°C, 5 min, 50 nM 3H-5HT
Counter-ions that a name gives are not always drawn.
MEASUREMENT KIND: IC50 (nM)
Report only the number, with the unit nM understood.

[[record]]
compound = "COc1ccc(Br)c2c1C(C)C(N1CCNCC1)CC2 (single isomer, unassigned) [Example 19, dihydrochloride]"
measurement_kind = "IC50"
numeric_value = 70


## Input I would be grateful if you could share the reported IC50 for CSc1ccc2c(c1)CCC(N1CCN(C)CC1)C2 (stereo not drawn) [Example 39, dihydrochloride] .
## Output 434

## Input I would be grateful if you could share the reported IC50 for CC1c2c(Cl)cccc2CCC1N1CCNCC1 (stereo not drawn) [Example 12, dihydrochloride] .
## Output 270

## Input I would be grateful if you could share the reported IC50 for Fc1ccc2c(c1)CCC(N1CCNCC1)C2 (stereo not drawn) [Example 27, dihydrochloride] .
## Output 340

## Input I would be grateful if you could share the reported IC50 for CN1CCN(C2CCc3cccc(Br)c3C2)CC1 (stereo not drawn) [Example 9, dimaleate] .
## Output 90

## Input I would be grateful if you could share the reported IC50 for CN1CCN(C2CCc3cccc(O)c3C2)CC1 (stereo not drawn) [Example 14, dihydrobromide] .
## Output 50

## Input I would be grateful if you could share the reported IC50 for Clc1ccc2c(c1)CCC(N1CCNCC1)C2 (stereo not drawn) [Example 25, dihydrochloride] .
## Output 100

## Input I would be grateful if you could share the reported IC50 for COc1cccc2c1CC(N1CCNCC1)CC2 (stereo not drawn) [Example 2, dihydrochloride] .
## Output 90

## Input I would be grateful if you could share the reported IC50 for Cc1ccc2c(c1)CCC(N1CCNCC1)C2 (stereo not drawn) [Example 28, dihydrochloride] .
## Output 210

* * *

Biological target: 5HT UPTAKE (Rattus norvegicus)
Construct: Crude synaptosomal preparations were isolated after differential centrifugation; from tissue; host or cells: rat cerebral cortex, crude synaptosomes
Assay: Inhibition of synaptosomal uptake of 3H-serotonin (3H-5HT) in vitro, rat cerebral cortex synaptosomes
Type: biochemical, Sprague-Dawley rats
Details: concentration needed to inhibit the uptake of 3H-5HT by 50%; rat cortical synaptosomes, 37°C, 5 min, 50 nM 3H-5HT
Where a name gives a salt, the structure may show the parent alone.
MEASUREMENT KIND: log10(IC50) (log10 of the value in nM)
Give log10 of IC50, with IC50 taken in nM.

Previously resolved entries follow.
[[record]]
compound = "Brc1ccc2c(c1)CCC(N1CCNCC1)C2 (stereo not drawn) [Example 26, dihydrochloride]"
numeric_value = 2.54

[[record]]
compound = "CN1CCN(C2CCc3cc(Cl)ccc3C2)CC1 (stereo not drawn) [Example 32, dihydrochloride]"
numeric_value = 2.65

[[record]]
compound = "C[C@@H]1c2ccc(Cl)cc2CC[C@@H]1N1CCNCC1 (single isomer, unassigned; (-)) [Example 33b, dihydrochloride dihydrate]"
numeric_value = 0.91

[[record]]
compound = "COc1cccc2c1CC(N1CCN(C)CC1)CC2 (stereo not drawn) [Example 1, dihydrochloride]"
numeric_value = 1.76

[[record]]
compound = "COc1ccc(Cl)c2c1CC(N1CCN(C)CC1)CC2 (stereo not drawn) [Example 21, dihydrochloride]"
numeric_value = 1.20

[[record]]
compound = "CC1c2ccccc2CCC1N1CCN(C)CC1 (stereo not drawn) [Example 35, dihydrochloride]"
numeric_value = 2.69


## Input I would be grateful if you could share the reported log10(IC50) for C[C@@H]1c2ccc(Cl)cc2CC[C@@H]1N1CCNCC1 (racemic) [Example 33, dihydrochloride] .
## Output 1.08

## Input I would be grateful if you could share the reported log10(IC50) for Clc1cc2c(cc1Cl)CC(N1CCNCC1)CC2 (stereo not drawn) [Example 30, dihydrochloride] .
## Output 2.06

## Input I would be grateful if you could share the reported log10(IC50) for CSc1cccc2c1CC(N1CCN(C)CC1)CC2 (stereo not drawn) [Example 18, dimaleate] .
## Output 1.60

## Input I would be grateful if you could share the reported log10(IC50) for Cc1cccc2c1CC(N1CCN(C)CC1)CC2 (stereo not drawn) [Example 7, dihydrochloride] .
## Output 1.94

## Input I would be grateful if you could share the reported log10(IC50) for COc1ccc(I)c2c1CC(N1CCN(C)CC1)CC2 (stereo not drawn) [Example 22, dihydrochloride] .
## Output 1.36

## Input I would be grateful if you could share the reported log10(IC50) for COc1ccc(OC)c2c1CCC(N1CCN(C)CC1)C2 (stereo not drawn) [Example 10, dihydrochloride] .
## Output 2.00

## Input I would be grateful if you could share the reported log10(IC50) for CC1c2ccccc2CCC1N1CCNCC1 (stereo not drawn) [Example 34, dihydrochloride] .
## Output 1.77

## Input I would be grateful if you could share the reported log10(IC50) for Oc1ccc2c(c1)CCC(N1CCNCC1)C2 (stereo not drawn) [Example 37, dihydrobromide] .
## Output 3.00

## Input I would be grateful if you could share the reported log10(IC50) for COc1ccc(C=O)c2c1CC(N1CCN(C)CC1)CC2 (stereo not drawn) [Example 23, dihydrochloride hydrate] .
## Output 1.00

## Input I would be grateful if you could share the reported log10(IC50) for COc1ccc(Br)c2c1CC(N1CCN(C)CC1)CC2 (stereo not drawn) [Example 15, dihydrochloride] .
## Output 1.08

## Input I would be grateful if you could share the reported log10(IC50) for CN1CCN(C2CCc3cccc(F)c3C2)CC1 (stereo not drawn) [Example 6, dimaleate] .
## Output 2.26

## Input I would be grateful if you could share the reported log10(IC50) for Cc1ccc(C)c2c1CCC(N1CCN(C)CC1)C2 (stereo not drawn) [Example 8, dimaleate] .
## Output 2.15

* * *

Reported IC50 values for a set of molecules
Target: 5HT UPTAKE (Rattus norvegicus, UniProt P31652)
Construct: Crude synaptosomal preparations were isolated after differential centrifugation; from tissue; host or cells: rat cerebral cortex, crude synaptosomes
Experiment: Inhibition of synaptosomal uptake of 3H-serotonin (3H-5HT) in vitro, rat cerebral cortex synaptosomes
Format: biochemical, Sprague-Dawley rats
Conditions: concentration needed to inhibit the uptake of 3H-5HT by 50%; rat cortical synaptosomes, 37°C, 5 min, 50 nM 3H-5HT
Structures can show the parent of a compound that is named as a salt.
Report only the number, with the unit nM understood.

Previously resolved entries follow.
[[record]]
molecule = "Clc1ccc2c(c1)CCC(N1CCCNCC1)C2 (centres unmarked) [Example 36, dihydrochloride]"
readout_unit = "nM"
numeric_value = 240

[[record]]
molecule = "Cc1ccc(Br)c2c1CC(N1CCN(C)CC1)CC2 (centres unmarked) [Example 17, dihydrochloride]"
readout_unit = "nM"
numeric_value = 17

[[record]]
molecule = "COc1ccc2c(c1)CCC(N1CCNCC1)C2 (centres unmarked) [Example 29, dihydrochloride]"
readout_unit = "nM"
numeric_value = 750


## Input I would be grateful if you could share the reported IC50 for Clc1cccc2c1CC(N1CCCNCC1)CC2 (centres unmarked) [Example 5, dimaleate] .
## Output 260

## Input I would be grateful if you could share the reported IC50 for Clc1cccc2c1CC(N1CCNCC1)CC2 (centres unmarked) [Example 3, dimaleate] .
## Output 83

Values from patent EP0343830A2
